ASSAY DETAILS: Cytotoxicity of A23187 and hydrogen peroxide on stable transfectants, propidium iodide uptake by flow cytometry
EXPERIMENTAL CONTEXT: Chinese hamster, Percent cytotoxicity, 4 μg/ml A23187; adapt78 overexpressing Clone 7

[
  {
    "COMPOUND": "CNc1ccc2oc(C[C@H]3O[C@@]4(CC[C@H]3C)O[C@H]([C@H](C)C(=O)c3ccc[nH]3)[C@H](C)C[C@H]4C)nc2c1C(=O)O [A23187]",
    "cytotoxicity at 60 min, 4 μg/ml": "10.1%"
  }
]

###

ASSAY DETAILS: Cytotoxicity of A23187 and hydrogen peroxide on stable transfectants, propidium iodide uptake by flow cytometry
EXPERIMENTAL CONTEXT: Chinese hamster, Percent cytotoxicity, 4 μg/ml A23187; adapt78 overexpressing Clone 10

[
  {
    "SMI": "CNc1ccc2oc(C[C@H]3O[C@@]4(CC[C@H]3C)O[C@H]([C@H](C)C(=O)c3ccc[nH]3)[C@H](C)C[C@H]4C)nc2c1C(=O)O",
    "cytotoxicity at 60 min, 4 μg/ml [%]": 11.7
  }
]
